meta.source: patent US20220177587A1

Molecular target: CD28 (human) (UniProt P10747)
Assay: flow cytometry, Jurkat cells (CD28)
QUANTITY NAME: MFI at 33.3 nM (MFI)
Please reply with the bare figure in MFI and do not write the unit itself.

BINDER	MFI at 33.3 nM [MFI]
variant CD80 IgV-Fc H18Y/A26E/V68M/D90G (Fc fusion) VIHVTKEVKEVATLSCGYNVSVEELEQTRIYWQKEKKMVLTMMSGDMNIWPEYKNRTIFDITNNLSIMILALRPSDEGTYECVVLKYEKGAFKREHLAEVTLSVKAD	2390

Let's switch to this binder now.
**Query** Hello, please tell me recorded MFI at 33.3 nM for this one: variant CD80 IgV-Fc (inert) H18V/A26D/E35D/M47V/V68M/A71G/D90G (Fc fusion) VIHVTKEVKEVATLSCGVNVSVEELDQTRIYWQKDKKMVLTMMSGDVNIWPEYKNRTIFDITNNLSIMILGLRPSDEGTYECVVLKYEKGAFKREHLAEVTLSVKAD
**Result** 6250
